experimental-target: MAGI3 PDZ 2 (Homo sapiens)
Construct: made in house; host or cells: E. coli
Sequence (Q5TCQ9 410-492 limits assumed): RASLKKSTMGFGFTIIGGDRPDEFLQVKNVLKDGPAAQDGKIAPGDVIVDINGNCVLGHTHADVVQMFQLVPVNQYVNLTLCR
assay: Holdup assay, MAGI3-2
Type: binding
condition-parameters: MAGI3-2

compound | experimental-target | BI
CC[C@H](C)[C@H](NC(=O)[C@H](CCC(N)=O)NC(=O)[C@@H](NC(=O)[C@H](Cc1c[nH]cn1)NC(=O)[C@H](CCC(N)=O)NC(=O)[C@H](CC(=O)O)NC(=O)[C@H](CCC(=O)O)NC(=O)[C@H](CC(=O)O)NC(=O)CCC(=O)NCCCOCCOCCOCCCNC(=O)CCCC[C@@H]1SC[C@@H]2NC(=O)N[C@@H]21)[C@@H](C)O)C(=O)N[C@H](C(=O)N[C@@H](CCCCN)C(=O)N[C@H](C(=O)O)C(C)C)[C@@H](C)O [PTEN_11] | MAGI3 PDZ 2 (Homo sapiens) | 0.094

---

experimental-target: DLG2-2 (Homo sapiens)
Sequence (Q15700 193-280): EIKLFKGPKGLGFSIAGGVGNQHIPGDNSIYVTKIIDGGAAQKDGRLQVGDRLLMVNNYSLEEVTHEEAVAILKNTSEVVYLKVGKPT
assay: Holdup assay, DLG2-2
Assay type: binding
*1 amine or outer side, *2 acyl side, *3 side chain or, on linkers, in order; H or OH if unused. Where a SMILES comes first, the peptide text is derived from it. The star is where a group is joined. X1 = O=C(CCCC[C@@H]1SC[C@@H]2NC(=O)N[C@@H]21)NCCCOCCOCCOCCCN*; Suc = O=C(CCC(=O)[*:2])[*:1]
Below, each entry is listed alongside its reported BI.
reported-property: BI

compound | reported-property | meas-value
CC[C@H](C)[C@H](NC(=O)[C@H](CCC(N)=O)NC(=O)[C@@H](NC(=O)[C@H](Cc1c[nH]cn1)NC(=O)[C@H](CCC(N)=O)NC(=O)[C@H](CC(=O)O)NC(=O)[C@H](CCC(=O)O)NC(=O)[C@H](CC(=O)O)NC(=O)CCC(=O)NCCCOCCOCCOCCCNC(=O)CCCC[C@@H]1SC[C@@H]2NC(=O)N[C@@H]21)[C@@H](C)O)C(=O)N[C@H](C(=O)N[C@@H](CCCCNC(C)=O)C(=O)N[C@H](C(=O)O)C(C)C)[C@@H](C)O [PTEN_Ac] | BI | 0.329
CC[C@H](C)[C@H](NC(=O)[C@H](CCC(N)=O)NC(=O)[C@@H](NC(=O)[C@H](Cc1c[nH]cn1)NC(=O)[C@H](CCC(N)=O)NC(=O)[C@H](CC(=O)O)NC(=O)[C@H](CCC(=O)O)NC(=O)[C@H](CC(=O)O)NC(=O)CCC(=O)NCCCOCCOCCOCCCNC(=O)CCCC[C@@H]1SC[C@@H]2NC(=O)N[C@@H]21)[C@@H](C)O)C(=O)N[C@H](C(=O)N[C@@H](CCCNC(=N)N)C(=O)N[C@H](C(=O)O)C(C)C)[C@@H](C)O [PTEN_KR] ({X1-Suc}-DEDQHTQITRV-OH) | BI | 0.312
CC[C@H](C)[C@H](NC(=O)[C@H](CCC(N)=O)NC(=O)[C@@H](NC(=O)[C@H](Cc1c[nH]cn1)NC(=O)[C@H](CCC(N)=O)NC(=O)[C@H](CC(=O)O)NC(=O)[C@H](CCC(=O)O)NC(=O)[C@H](CC(=O)O)NC(=O)CCC(=O)NCCCOCCOCCOCCCNC(=O)CCCC[C@@H]1SC[C@@H]2NC(=O)N[C@@H]21)[C@@H](C)O)C(=O)N[C@H](C(=O)N[C@@H](CCCCN)C(=O)N[C@H](C(=O)O)C(C)C)[C@@H](C)O [PTEN_11] | BI | 0.168
CC[C@H](C)[C@H](NC(=O)[C@H](CCC(N)=O)NC(=O)[C@@H](NC(=O)[C@H](Cc1c[nH]cn1)NC(=O)[C@H](CCC(N)=O)NC(=O)[C@H](CC(=O)O)NC(=O)[C@H](CCC(=O)O)NC(=O)[C@H](CC(=O)O)NC(=O)[C@H](Cc1ccccc1)NC(=O)[C@@H]1CCCN1C(=O)CCC(=O)NCCCOCCOCCOCCCNC(=O)CCCC[C@@H]1SC[C@@H]2NC(=O)N[C@@H]21)[C@@H](C)O)C(=O)N[C@H](C(=O)N[C@@H](CCCCN)C(=O)N[C@H](C(=O)O)C(C)C)[C@@H](C)O [PTEN_13] ({X1-Suc}-PFDEDQHTQITKV-OH) | BI | 0.054

---

Test system: 266 human PDZ domains (PDZome)
assay: Holdup assay (chromatographic retention, PDZome-binding profile, BI)
Parameters: key: binding intensity: 0.00 = no binding, 1.00 = maximal binding
condition-parameters: PDZ domain PDZRN4-1
*1 amine or outer side, *2 acyl side, *3 side chain or, on linkers, in order; H or OH if unused. Where a SMILES comes first, the peptide text is derived from it. The star is where a group is joined. X1 = O=C(CCCC[C@@H]1SC[C@@H]2NC(=O)N[C@@H]21)NCCCOCCOCCOCCCN*; Suc = O=C(CCC(=O)[*:2])[*:1]
Measured BI by item

molecule | experimental-target | BI
CC[C@H](C)[C@H](NC(=O)[C@H](CCC(N)=O)NC(=O)[C@@H](NC(=O)[C@H](Cc1c[nH]cn1)NC(=O)[C@H](CCC(N)=O)NC(=O)[C@H](CC(=O)O)NC(=O)[C@H](CCC(=O)O)NC(=O)[C@H](CC(=O)O)NC(=O)CCC(=O)NCCCOCCOCCOCCCNC(=O)CCCC[C@@H]1SC[C@@H]2NC(=O)N[C@@H]21)[C@@H](C)O)C(=O)N[C@H](C(=O)N[C@@H](CCCCNC(C)=O)C(=O)N[C@H](C(=O)O)C(C)C)[C@@H](C)O | 266 human PDZ domains (PDZome) | -0.064
CC[C@H](C)[C@H](NC(=O)[C@H](CCC(N)=O)NC(=O)[C@@H](NC(=O)[C@H](Cc1c[nH]cn1)NC(=O)[C@H](CCC(N)=O)NC(=O)[C@H](CC(=O)O)NC(=O)[C@H](CCC(=O)O)NC(=O)[C@H](CC(=O)O)NC(=O)CCC(=O)NCCCOCCOCCOCCCNC(=O)CCCC[C@@H]1SC[C@@H]2NC(=O)N[C@@H]21)[C@@H](C)O)C(=O)N[C@H](C(=O)N[C@@H](CCCNC(=N)N)C(=O)N[C@H](C(=O)O)C(C)C)[C@@H](C)O [PTEN_KR] ({X1-Suc}-DEDQHTQITRV-OH) | 266 human PDZ domains (PDZome) | 0.048
CC[C@H](C)[C@H](NC(=O)[C@H](CCC(N)=O)NC(=O)[C@@H](NC(=O)[C@H](Cc1c[nH]cn1)NC(=O)[C@H](CCC(N)=O)NC(=O)[C@H](CC(=O)O)NC(=O)[C@H](CCC(=O)O)NC(=O)[C@H](CC(=O)O)NC(=O)[C@H](Cc1ccccc1)NC(=O)[C@@H]1CCCN1C(=O)CCC(=O)NCCCOCCOCCOCCCNC(=O)CCCC[C@@H]1SC[C@@H]2NC(=O)N[C@@H]21)[C@@H](C)O)C(=O)N[C@H](C(=O)N[C@@H](CCCCN)C(=O)N[C@H](C(=O)O)C(C)C)[C@@H](C)O [PTEN_13] ({X1-Suc}-PFDEDQHTQITKV-OH) | 266 human PDZ domains (PDZome) | -0.022

---

System: 266 human PDZ domains (PDZome)
assay: Holdup assay (chromatographic retention, PDZome-binding profile, BI)
Set-up: key: binding intensity: 0.00 = no binding, 1.00 = maximal binding
condition-parameters: PDZ domain PTPN13-5

compound | BI
CC[C@H](C)[C@H](NC(=O)[C@H](CCC(N)=O)NC(=O)[C@@H](NC(=O)[C@H](Cc1c[nH]cn1)NC(=O)[C@H](CCC(N)=O)NC(=O)[C@H](CC(=O)O)NC(=O)[C@H](CCC(=O)O)NC(=O)[C@H](CC(=O)O)NC(=O)CCC(=O)NCCCOCCOCCOCCCNC(=O)CCCC[C@@H]1SC[C@@H]2NC(=O)N[C@@H]21)[C@@H](C)O)C(=O)N[C@H](C(=O)N[C@@H](CCCCNC(C)=O)C(=O)N[C@H](C(=O)O)C(C)C)[C@@H](C)O [PTEN_Ac] | -0.046

---

Tested on: 266 human PDZ domains (PDZome)
assay: Holdup assay (chromatographic retention, PDZome-binding profile, BI)
Design: key: binding intensity: 0.00 = no binding, 1.00 = maximal binding
condition-parameters: PDZ domain NHERF1-2
reported-property: BI

smiles-entry | meas-value
CC[C@H](C)[C@H](NC(=O)[C@H](CCC(N)=O)NC(=O)[C@@H](NC(=O)[C@H](Cc1c[nH]cn1)NC(=O)[C@H](CCC(N)=O)NC(=O)[C@H](CC(=O)O)NC(=O)[C@H](CCC(=O)O)NC(=O)[C@H](CC(=O)O)NC(=O)CCC(=O)NCCCOCCOCCOCCCNC(=O)CCCC[C@@H]1SC[C@@H]2NC(=O)N[C@@H]21)[C@@H](C)O)C(=O)N[C@H](C(=O)N[C@@H](CCCCNC(C)=O)C(=O)N[C@H](C(=O)O)C(C)C)[C@@H](C)O | 0.046
